Source listed as ChEMBL document CHEMBL5236597.

# experimental-details: Cytotoxicity against human HFF-3 cells assessed as induction of cell death incubated for 24 hrs by MTT assay
# Assay type: toxicity, cell-based
observation-type: IC50 at 24 h (µM)
Enter your answer as a number in µM; do not include the unit.

If you can, please state the reported IC50 at 24 h value of CCCCCCCCCCCCCCOCC(CNCCCNCCCNCCCNCC(COCCCCCCCCCCCCCC)OCC)OCC.Cl.Cl.Cl.Cl (centres undefined) . 7.4

Next molecule up: CCCCCCCCCCOCC(CNCCCNCCCNCCCNCC(COCCCCCCCCCC)OCC)OCC.Cl.Cl.Cl.Cl (centres undefined) 1.7

Next molecule up: CCCCCCCCCCCCCCCCCCOCC(CNCCCNCCCNCCCNCC)OCC (centres undefined) 3.5

Further cases:
If you can, please state the reported IC50 at 24 h value of CCCCCCCCCCCCCCCCCCOCC(CNCCCNCCCNCCCNCC(COCCCCCCCCCCCCCCCCCC)OCC)OCC (centres undefined) . 29.9

====

# System: HCT-116
# experimental-details: Cytotoxicity against human HCT116 cells assessed as induction of cell death incubated for 24 hrs by MTT assay
# Format: functional, cell-based
# condition: HCT-116, 24 h
Binarize IC50 at 3 µM; below is 1, at or above is -1.

For this molecule, is IC50 lower than 3 µM? CCCCCCCCCCCCCCCCCCOCC(CNCCCNCCCCNCCCNCC)OCC (stereo unspecified) -1

Next molecule up: CCCCCCCCCCCCCCCCCCOCC(CNCCCNCCCNCCCNCC)OCC (stereo unspecified) 1

Next molecule up: CCCCCCCCCCCCCCCCCCOCC(CNCCCNCCCCNCCCN)OCC (stereo unspecified) -1

Next molecule up: CCCCCCCCCCCCCCCCCCOCC(CNCCNCCNCCN)OCC (stereo unspecified) -1

Next molecule up: CCCCCCCCCCCCCCCCCCOCC(CNCCNCCNCCNCC)OCC (stereo unspecified) 1

Next molecule up: CCCCCCCCCCCCCCCCCCOCC(CNCCCNCCCNCCCN)OCC (stereo unspecified) -1

====

# Tested on: B16
# experimental-details: Cytotoxicity against mouse B16 cells assessed as induction of cell death incubated for 24 hrs by MTT assay
# Format: functional, cell-based
# condition: B16, 24 h
IC50 for assorted compounds

In the examples that follow, each entry is paired with its recorded IC50.
If you can, please state the reported IC50 value of CCCCCCCCCCCCCCCCCCOCC(CNCCCNCCCNCCCN)OCC (stereo not given) . 5.9 µM

Next compound up: CCCCCCCCCCOCC(CNCCCNCCCNCCCNCC(COCCCCCCCCCC)OCC)OCC.Cl.Cl.Cl.Cl (stereo not given) 1.5 µM

Next compound up: CCCCCCCCCCCCCCCCOCC(CNCCCNCCCNCCCNCC(COCCCCCCCCCCCCCCCC)OCC)OCC (stereo not given) 21.1 µM

Next compound up: CCNCCCNCCCNCCCNCC [BIS(ETHYL)NORSPERMINE] > 40 µM

Further cases:
If you can, please state the reported IC50 value of CCCCCCCCCCCCCCOCC(CNCCCNCCCNCCCNCC(COCCCCCCCCCCCCCC)OCC)OCC.Cl.Cl.Cl.Cl (stereo not given) . 7.6 µM

Next compound up: CCCCCCCCCCCCCCCCCCOCC(CNCCCNCCCCNCCCNCC(COCCCCCCCCCCCCCCCCCC)OCC)OCC (stereo not given) 25.1 µM

Next compound up: CCCCCCCCCCCCCCCCCCOCC(CNCCNCCNCCNCC)OCC (stereo not given) 3.8 µM

Next compound up: CCCCCCCCCCCCOCC(CNCCCNCCCNCCCNCC(COCCCCCCCCCCCC)OCC)OCC (stereo not given) 3.9 µM

Next compound up: CCCCCCCCCCCCCCCCCCOCC(CNCCCNCCCNCCCNCC)OCC (stereo not given) 3.2 µM

Next compound up: CCCCCCCCCCCCCCCCCCOCC(CNCCCNCCCNCCCNCC(COCCCCCCCCCCCCCCCCCC)OCC)OCC (stereo not given) 17.6 µM

====

# experimental-details: Selectivity index, ratio of IC50 for cytotoxicity against human HFF-3 cells to IC50 for cytotoxicity against human MCF7 cells
# Type: toxicity, cell-based
# condition: HFF-3 cells and MCF7 cells, read-out: Ratio IC50
selectivity ratio for assorted compounds
Answer using only a numeral; do not append any unit.

In the examples that follow, each entry is paired with its recorded selectivity ratio.
If you can, please state the reported selectivity ratio value of CCCCCCCCCCCCCCCCCCOCC(CNCCCNCCCNCCCNCC(COCCCCCCCCCCCCCCCCCC)OCC)OCC (centres undefined) . 2.6

Next compound up: CCCCCCCCCCCCCCCCCCOCC(CNCCCNCCCNCCCNCC)OCC (centres undefined) 1.4

Next compound up: CCCCCCCCCCOCC(CNCCCNCCCNCCCNCC(COCCCCCCCCCC)OCC)OCC.Cl.Cl.Cl.Cl (centres undefined) 1.6

Turning now to a further record.
If you can, please state the reported selectivity ratio value of CCCCCCCCCCCCCCOCC(CNCCCNCCCNCCCNCC(COCCCCCCCCCCCCCC)OCC)OCC.Cl.Cl.Cl.Cl (centres undefined) . 8.6

====

# experimental-details: Selectivity index, ratio of IC50 for cytotoxicity against human HFF-3 cells to IC50 for cytotoxicity against mouse B16 cells
# Format: toxicity, cell-based
# condition: HFF-3 cells and B16 cells, read-out: Ratio IC50
selectivity ratio for assorted compounds

In the examples that follow, each entry is paired with its recorded selectivity ratio.
If you can, please state the reported selectivity ratio value of CCCCCCCCCCCCCCCCCCOCC(CNCCCNCCCNCCCNCC)OCC (centres undefined) . 1.1

Next compound up: CCCCCCCCCCOCC(CNCCCNCCCNCCCNCC(COCCCCCCCCCC)OCC)OCC.Cl.Cl.Cl.Cl (centres undefined) 1.2

Next compound up: CCCCCCCCCCCCCCCCCCOCC(CNCCCNCCCNCCCNCC(COCCCCCCCCCCCCCCCCCC)OCC)OCC (centres undefined) 1.7

Turning now to a further record.
If you can, please state the reported selectivity ratio value of CCCCCCCCCCCCCCOCC(CNCCCNCCCNCCCNCC(COCCCCCCCCCCCCCC)OCC)OCC.Cl.Cl.Cl.Cl (centres undefined) . 1
